Examples of compounds with documented residual activity follow.
system_name: HIPK3 (human) (UniProt Q9H422)
Sequence (Q9H422 whole entry, looked up): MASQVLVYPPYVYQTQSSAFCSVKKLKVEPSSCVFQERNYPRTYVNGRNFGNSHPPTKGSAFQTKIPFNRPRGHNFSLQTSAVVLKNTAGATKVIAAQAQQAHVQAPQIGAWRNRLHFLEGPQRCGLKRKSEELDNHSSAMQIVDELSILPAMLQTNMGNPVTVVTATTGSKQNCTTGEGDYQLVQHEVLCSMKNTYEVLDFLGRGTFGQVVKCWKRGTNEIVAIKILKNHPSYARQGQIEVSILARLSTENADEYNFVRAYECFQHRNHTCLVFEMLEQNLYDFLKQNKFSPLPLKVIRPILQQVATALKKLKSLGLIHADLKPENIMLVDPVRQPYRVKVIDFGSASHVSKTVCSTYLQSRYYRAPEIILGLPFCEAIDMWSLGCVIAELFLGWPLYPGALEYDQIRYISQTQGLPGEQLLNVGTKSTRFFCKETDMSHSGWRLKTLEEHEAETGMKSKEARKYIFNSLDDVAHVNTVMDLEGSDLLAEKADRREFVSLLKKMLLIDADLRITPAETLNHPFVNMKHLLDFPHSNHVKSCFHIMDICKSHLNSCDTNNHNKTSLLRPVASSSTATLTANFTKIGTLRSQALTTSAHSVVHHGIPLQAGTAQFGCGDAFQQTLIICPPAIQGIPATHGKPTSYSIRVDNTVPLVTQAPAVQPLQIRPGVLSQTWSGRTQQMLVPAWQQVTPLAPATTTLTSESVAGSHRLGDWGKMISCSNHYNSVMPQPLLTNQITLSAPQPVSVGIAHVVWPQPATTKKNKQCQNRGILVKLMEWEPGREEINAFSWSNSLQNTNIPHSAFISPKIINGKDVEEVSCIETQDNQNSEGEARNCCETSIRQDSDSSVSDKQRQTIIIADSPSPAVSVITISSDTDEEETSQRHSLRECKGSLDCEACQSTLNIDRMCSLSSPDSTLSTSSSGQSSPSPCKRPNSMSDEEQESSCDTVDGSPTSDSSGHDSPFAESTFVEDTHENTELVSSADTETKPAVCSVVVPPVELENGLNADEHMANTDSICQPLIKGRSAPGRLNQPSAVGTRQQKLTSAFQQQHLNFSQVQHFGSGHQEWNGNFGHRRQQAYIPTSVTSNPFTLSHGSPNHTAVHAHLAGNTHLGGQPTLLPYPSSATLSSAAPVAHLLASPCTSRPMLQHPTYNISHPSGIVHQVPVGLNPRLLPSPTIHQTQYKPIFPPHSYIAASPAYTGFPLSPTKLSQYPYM
experimental_details: radiometric filter-binding kinase assay
particulars: compound 1.0 µM
parameter: residual activity (%)

- COc1ccc(-n2ncc3cnc(Nc4cc(OC)c(OC)c(OCCCN5CCN(C)CC5)c4)nc32)cc1: 19
- Cc1ccc(Sc2cnc(Nc3cccc(Br)n3)s2)cc1C(=O)N1CCN(C(=O)CN)CC1: 31
- NC1(c2ccc(-c3nc4ccn5c(=O)[nH]nc5c4cc3-c3ccccc3)cc2)CCC1: 100
- CC(C)(C#N)c1ccc(N2C(=O)OCc3cnc4ccc(-c5cnc6ccccc6c5)cc4c32)cc1: 96
- NC(=O)c1c(NC(=O)C2CC2)sc2c1CCCC2: 89
- CCCCCc1ccc(/C=C/[C@H](O)[C@@H](CO)NC)cc1: 112
- Cc1ccc(=O)n(-c2ccccc2)c1: 100
- COc1ccc2c(c1)c1c3c(c4c5ccccc5n(C)c4c1n2CC(O)CN(C)C)C(=O)NC3=O (stereo not given): 106
- COc1cc(O)c2c(c1)/C=C/C[C@H](O)[C@H](O)C(=O)/C=C\C[C@H](C)OC2=O: 103
- CCNc1nc(Nc2cc(F)c(C(=O)N3CCOCC3)cc2OC)ncc1C(F)(F)F: 107
- CNC(=O)C1[C@H]2O[C@@](C)([C@@H]1N)n1c3ccccc3c3c4c(c5c6ccccc6n2c5c31)C(=O)NC4 (stereo not given in full): 10
- O=C(NOCC(O)CO)c1ccc(F)c(F)c1Nc1ccc(I)cc1Cl (stereo not given): 90
- Cc1cc(NC(=O)c2cccc(NC(=O)/C=C/CN(C)C)c2)ccc1Nc1nccc(-c2cccnc2)n1: 90
- O=c1c(O)c(-c2ccc(O)c(O)c2)oc2cc(O)c(O)c(O)c12: 88
- CNc1nc(-c2ccc3c(N)n[nH]c3c2)cc(N2C[C@@H](C(=O)NC3CCCCC3)CC[C@H]2C)n1: 99
- C=C1C(=O)OC2C1CC/C(C)=C/CCC1(C)OC21 (stereo not given): 110
- COc1cc(O)c2c(c1)[C@H]1OC1C[C@H](O)[C@H](O)C(=O)/C=C\C[C@H](C)OC2=O (stereo not given in full): 102
- Oc1ccc(/C=C/c2cc(O)cc(O)c2)cc1: 93
- Cc1ccc(-c2ccc3c(ccc4sc5c(c43)NC[C@@H](C)NC5=O)n2)cn1: 108
- O=C(NCCCNc1nc(Nc2cccc(CN3CCOCC3)c2)ncc1C1CC1)C1CCC1: 108
- NC(=O)c1cc(-c2ccnc(NC3CCCCC3)c2)nc(N2CCNCC2)c1: 92
- FC(F)(F)c1ccc(-c2ccc(Oc3cncc4sc(-c5nn[nH]n5)cc34)cc2)cc1: 63
- CN1C(=O)[C@@H](Cc2c[nH]c3ccccc23)NC1=S: 111
- Cc1cccc(Nc2nn(C)c3ncnc(N)c23)c1: 136
- NCC(=O)Nc1ccc(-n2nc(C(F)(F)F)cc2-c2ccc3c(ccc4ccccc43)c2)cc1: 94
- COc1cc2ncn(-c3cc(OCc4ccccc4S(C)(=O)=O)c(C#N)s3)c2cc1OC: 102
- O=C(Nc1ccccc1-c1cn2c(CN3CCNCC3)csc2n1)c1cnc2ccccc2n1: 92
- Cc1nc(-c2ccc(OCC(C)C)c(C#N)c2)sc1C(=O)O: 108
- COc1cc(C(=O)N2CCOCC2)c(F)cc1Nc1ncc(C(F)(F)F)c(NC2CC2)n1: 101
- C=CC(=O)N1CCC[C@@H](n2nc(-c3ccc(Oc4ccccc4)cc3)c3c(N)ncnc32)C1: 123
- O=C(N[C@@H](COc1ccc2[nH]c(=O)[nH]c2c1)c1ccccc1)c1cccn(Cc2ccc(F)c(F)c2)c1=O: 108
- O=C(O)c1cc(N=Nc2ccc(S(=O)(=O)Nc3ccccn3)cc2)ccc1O: 98
- Oc1ccc2ccccc2c1SSc1c(O)ccc2ccccc12: 37
- NC(=O)c1ccc(-c2ccc(Oc3cncc4sc(-c5nn[nH]n5)cc34)cc2)cc1: 96
- NC(=O)c1cc2c(-c3cccc(-c4ccccc4)c3)cnc(N)c2s1: 52
- N#Cc1c(C2CCNCC2)cc(-c2c(O)cccc2OCC2CC2)nc1N: 129
- Cc1cccc(-c2nn(C(=S)Nc3ccccc3)cc2-c2ccnc3ccccc23)n1: 99
- NS(=O)(=O)OC[C@@H]1C[C@@H](n2ccc3c(N[C@H]4CCc5ccccc54)ncnc32)C[C@@H]1O: 84
- O=C(NOC[C@H](O)CO)c1ccc(F)c(F)c1Nc1ccc(I)cc1Cl: 101
- Cn1nc(Nc2ccc(F)cc2)c2c(N)ncnc21: 143

###

Test system: PRKAA1 or PRKAA2 (rat)
experimental_details: radiometric filter-binding kinase assay
particulars: compound 0.01 µM; accession and sequence are those of the human protein
parameter: residual activity (%)

• O=C(Nc1nc2cc(C(F)(F)F)cc(NC3CC3)n2n1)c1cccnc1 = 108
• CNc1nc(-c2ccc3c(N)n[nH]c3c2)cc(N2C[C@@H](C(=O)NC3CCCCC3)CC[C@H]2C)n1 = 107
• CNC(=O)C1[C@H]2O[C@@](C)([C@@H]1N)n1c3ccccc3c3c4c(c5c6ccccc6n2c5c31)C(=O)NC4 (stereo not given in full) = 6
• COc1cc(O)c2c(c1)[C@H]1OC1C[C@H](O)[C@H](O)C(=O)/C=C\C[C@H](C)OC2=O (stereo not given in full) = 105
• C/C(=C1/C(=O)Nc2ccc(NC(N)=O)cc21)c1ccc[nH]1 = 25

###

system_name: PTK6 (human) (UniProt Q13882)
Sequence (Q13882 whole entry, looked up): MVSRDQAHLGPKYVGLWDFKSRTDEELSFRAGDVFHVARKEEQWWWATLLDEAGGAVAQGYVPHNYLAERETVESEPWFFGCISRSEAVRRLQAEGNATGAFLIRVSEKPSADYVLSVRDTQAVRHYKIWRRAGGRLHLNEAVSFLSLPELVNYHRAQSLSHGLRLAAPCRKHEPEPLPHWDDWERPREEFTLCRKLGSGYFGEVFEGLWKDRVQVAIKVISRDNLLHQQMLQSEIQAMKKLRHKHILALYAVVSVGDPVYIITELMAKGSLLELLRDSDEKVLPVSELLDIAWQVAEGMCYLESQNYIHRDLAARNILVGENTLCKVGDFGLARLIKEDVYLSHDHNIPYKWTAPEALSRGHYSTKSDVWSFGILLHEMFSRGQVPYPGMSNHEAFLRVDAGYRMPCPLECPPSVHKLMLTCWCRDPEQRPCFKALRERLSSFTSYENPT
experimental_details: radiometric filter-binding kinase assay
particulars: compound 10.0 µM
parameter: residual activity (%)

- CC(C)(C#N)c1ccc(N2C(=O)OCc3cnc4ccc(-c5cnc6ccccc6c5)cc4c32)cc1: 97
- CNc1nc(-c2ccc3c(N)n[nH]c3c2)cc(N2C[C@@H](C(=O)NC3CCCCC3)CC[C@H]2C)n1: 116
- NC(=O)c1cc(-c2ccnc(NC3CCCCC3)c2)nc(N2CCNCC2)c1: 103
- O=C(NOC[C@H](O)CO)c1ccc(F)c(F)c1Nc1ccc(I)cc1Cl: 121
- COc1cc(C(=O)N2CCOCC2)c(F)cc1Nc1ncc(C(F)(F)F)c(NC2CC2)n1: 22
- CC(C)C[C@H](NC(=O)CNC(=O)c1cc(Cl)ccc1Cl)B1OC(=O)CC(CC(=O)O)(C(=O)O)O1 (some centres undefined): 96
- C=CC(=O)N1CCC[C@@H](n2nc(-c3ccc(Oc4ccccc4)cc3)c3c(N)ncnc32)C1: 8
- O=C(Nc1cccnc1)c1cc(-c2ccnc(F)c2)ccc1OCc1ccccc1: 101
- NC(=O)c1c(NC(=O)C2CC2)sc2c1CCCC2: 95

###

system_name: RIPK2 (human)
experimental_details: radiometric filter-binding kinase assay
particulars: compound 0.01 µM
Label rule, in plain words: residual activity of 80% and up is t, under 80% is f.

* COc1cc(O)c2c(c1)[C@H]1OC1C[C@H](O)[C@H](O)C(=O)/C=C\C[C@H](C)OC2=O (stereo not given in full) | t
* COc1ccc(N(C(=O)Nc2c(C)cccc2C)c2cc(Nc3ccc(N4CCN(C)CC4)cc3)ncn2)c(OC)c1 | f
* CNc1nc(-c2ccc3c(N)n[nH]c3c2)cc(N2C[C@@H](C(=O)NC3CCCCC3)CC[C@H]2C)n1 | t
* O=C(Nc1nc2cc(C(F)(F)F)cc(NC3CC3)n2n1)c1cccnc1 | t

###

Examples of compounds with documented residual activity follow.
system_name: IRAK1 (human) (UniProt P51617)
Sequence (P51617 whole entry, looked up): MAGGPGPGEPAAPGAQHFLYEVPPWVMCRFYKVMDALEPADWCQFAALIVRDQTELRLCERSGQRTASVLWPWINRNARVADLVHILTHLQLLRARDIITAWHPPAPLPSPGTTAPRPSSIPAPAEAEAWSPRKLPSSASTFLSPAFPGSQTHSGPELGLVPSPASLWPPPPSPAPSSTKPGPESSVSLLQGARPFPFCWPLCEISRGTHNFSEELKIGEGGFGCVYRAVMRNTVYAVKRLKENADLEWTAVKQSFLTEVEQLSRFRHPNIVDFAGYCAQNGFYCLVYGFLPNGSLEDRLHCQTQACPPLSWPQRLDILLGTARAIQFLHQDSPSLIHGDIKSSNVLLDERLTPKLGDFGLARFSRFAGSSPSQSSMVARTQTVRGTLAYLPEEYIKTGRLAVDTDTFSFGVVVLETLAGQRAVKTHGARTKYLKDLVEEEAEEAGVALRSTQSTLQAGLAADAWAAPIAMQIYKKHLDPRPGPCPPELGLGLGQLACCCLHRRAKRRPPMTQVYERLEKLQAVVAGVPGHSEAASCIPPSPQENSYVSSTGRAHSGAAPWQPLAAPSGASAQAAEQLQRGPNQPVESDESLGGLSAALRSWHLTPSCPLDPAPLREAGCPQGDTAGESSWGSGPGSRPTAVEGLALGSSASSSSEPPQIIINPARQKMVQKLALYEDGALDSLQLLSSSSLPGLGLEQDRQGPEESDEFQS
experimental_details: radiometric filter-binding kinase assay
particulars: compound 0.1 µM
parameter: residual activity

- O=C(Nc1nc2cc(C(F)(F)F)cc(NC3CC3)n2n1)c1cccnc1: 100%
- CC1=C(CO)C(=O)O[C@@H]([C@@H](C)[C@H]2CC[C@H]3[C@@H]4C[C@H]5O[C@]56[C@@H](O)C=CC(=O)[C@]6(C)C4CC[C@]23C)C1 (stereo partly specified): 101%
- COc1ccc(-n2ncc3cnc(Nc4cc(OC)c(OC)c(OCCCN5CCN(C)CC5)c4)nc32)cc1: 19%
- O=C(N[C@@H](COc1ccc2[nH]c(=O)[nH]c2c1)c1ccccc1)c1cccn(Cc2ccc(F)c(F)c2)c1=O: 117%
- NC(=O)c1cc(-c2ccnc(NC3CCCCC3)c2)nc(N2CCNCC2)c1: 92%
- COc1ccc(N(C(=O)Nc2c(C)cccc2C)c2cc(Nc3ccc(N4CCN(C)CC4)cc3)ncn2)c(OC)c1: 95%

###

system_name: YES1 (human)
experimental_details: radiometric filter-binding kinase assay
particulars: compound 10.0 µM
parameter: residual activity (%)

* CC(C)(C#N)c1ccc(N2C(=O)OCc3cnc4ccc(-c5cnc6ccccc6c5)cc4c32)cc1 | 93
* CCNc1nc(Nc2cc(F)c(C(=O)N3CCOCC3)cc2OC)ncc1C(F)(F)F | 104
* CCOC(=O)c1ccc(N2NC(=O)/C(=C/c3ccc([N+](=O)[O-])o3)C2=O)cc1 | 110
* CCCC(CCC)C(=O)O | 91
* Cc1ccc(Sc2cnc(Nc3cccc(Br)n3)s2)cc1C(=O)N1CCN(C(=O)CN)CC1 | 6
* Oc1ccc(/C=C/c2cc(O)cc(O)c2)cc1 | 77
